System: Escherichia coli TOP10
Assay: shrunken log2 fold change of peptide-encoding DNA abundance (4.5 h post-induction vs induction); higher = less antimicrobial activity (less host growth inhibition)
Details: time post-induction: 4.5 h; library: site-saturation at positions 5, 18, 19, 20
shrunken log2 fold change of -0.07 or higher: Y. Under -0.07: N.

Please review the entries below; each comes with its answer.
RRIRWRPPRLPRPRPRPNHGPRP = N
RRIRCRPPRLPRPRPRPHGAPRP = Y
RRIRGRPPRLPRPRPRPTHDPRP = Y
RRIRGRPPRLPRPRPRPCEQPRP = Y
RRIRLRPPRLPRPRPRPLQIPRP = N

Is it the case that `RRIRNRPPRLPRPRPRPWVHPRP` has shrunken log2 fold change reaching or exceeding -0.07?
N

Is it the case that `RRIRSRPPRLPRPRPRPIIGPRP` has shrunken log2 fold change reaching or exceeding -0.07?
N

Is it the case that `RRIRWRPPRLPRPRPRPSYFPRP` has shrunken log2 fold change reaching or exceeding -0.07?
Y

Is it the case that `RRIRFRPPRLPRPRPRPDYQPRP` has shrunken log2 fold change reaching or exceeding -0.07?
N

Is it the case that `RRIRHRPPRLPRPRPRPDWLPRP` has shrunken log2 fold change reaching or exceeding -0.07?
Y

Is it the case that `RRIRQRPPRLPRPRPRPKDQPRP` has shrunken log2 fold change reaching or exceeding -0.07?
Y

Is it the case that `RRIRFRPPRLPRPRPRPMSTPRP` has shrunken log2 fold change reaching or exceeding -0.07?
N

Is it the case that `RRIRHRPPRLPRPRPRPDTKPRP` has shrunken log2 fold change reaching or exceeding -0.07?
Y

---

System: Escherichia coli TOP10
Assay: shrunken log2 fold change of peptide-encoding DNA abundance (4.5 h post-induction vs induction); higher = less antimicrobial activity (less host growth inhibition)
Details: time post-induction: 4.5 h; library: site-saturation at positions 5, 18, 19, 20
Listing of recorded shrunken log2 fold change by entry.
Give only the figure.

Some sequences with recorded shrunken log2 fold change:
RRIRNRPPRLPRPRPRPWNNPRP = -0.15
RRIRRRPPRLPRPRPRPQEIPRP = -0.149
RRIRPRPPRLPRPRPRPHSSPRP = -0.171

Give measured shrunken log2 fold change for `RRIRHRPPRLPRPRPRPQFRPRP` (Escherichia coli TOP10).
-0.0324

Give measured shrunken log2 fold change for `RRIRLRPPRLPRPRPRPFENPRP` (Escherichia coli TOP10).
-0.388

Give measured shrunken log2 fold change for `RRIRVRPPRLPRPRPRPDVYPRP` (Escherichia coli TOP10).
-0.0411

---

Test system: Escherichia coli TOP10
Experiment: shrunken log2 fold change of peptide-encoding DNA abundance (4.5 h post-induction vs induction); higher = less antimicrobial activity (less host growth inhibition)
Conditions: time post-induction: 4.5 h; library: site-saturation at positions 5, 18, 19, 20
shrunken log2 fold change of 0.03 or higher: condition met. Under 0.03: condition not met.

Is it the case that `RRIRRRPPRLPRPRPRPDHLPRP` has shrunken log2 fold change reaching or exceeding 0.03?
condition not met

Is it the case that `RRIRRRPPRLPRPRPRPSQFPRP` has shrunken log2 fold change reaching or exceeding 0.03?
condition met

Is it the case that `RRIRIRPPRLPRPRPRPSEIPRP` has shrunken log2 fold change reaching or exceeding 0.03?
condition met

Is it the case that `RRIRHRPPRLPRPRPRPQRHPRP` has shrunken log2 fold change reaching or exceeding 0.03?
condition met

Is it the case that `RRIRLRPPRLPRPRPRPQGQPRP` has shrunken log2 fold change reaching or exceeding 0.03?
condition not met

Is it the case that `RRIRARPPRLPRPRPRPIPFPRP` has shrunken log2 fold change reaching or exceeding 0.03?
condition not met

Is it the case that `RRIRMRPPRLPRPRPRPFSSPRP` has shrunken log2 fold change reaching or exceeding 0.03?
condition met

Is it the case that `RRIRIRPPRLPRPRPRPHYVPRP` has shrunken log2 fold change reaching or exceeding 0.03?
condition not met

---

Test system: Escherichia coli TOP10
Experiment: shrunken log2 fold change of peptide-encoding DNA abundance (4.5 h post-induction vs induction); higher = less antimicrobial activity (less host growth inhibition)
Conditions: time post-induction: 4.5 h; library: site-saturation at positions 5, 18, 19, 20
reportedMetric: shrunken log2 fold change
Give only the figure.

Some sequences with recorded shrunken log2 fold change:
RRIRPRPPRLPRPRPRPPESPRP = 0.841
RRIRFRPPRLPRPRPRPQSAPRP = 0.0283
RRIRKRPPRLPRPRPRPNLMPRP = 3.86

Find the measured shrunken log2 fold change of `RRIRLRPPRLPRPRPRPFQAPRP` and report it.
0.0248

Find the measured shrunken log2 fold change of `RRIRPRPPRLPRPRPRPDSQPRP` and report it.
-0.127

Find the measured shrunken log2 fold change of `RRIRERPPRLPRPRPRPVLGPRP` and report it.
-0.101

Find the measured shrunken log2 fold change of `RRIRERPPRLPRPRPRPVRGPRP` and report it.
0.543

Find the measured shrunken log2 fold change of `RRIRLRPPRLPRPRPRPRMWPRP` and report it.
0.458

---

Test system: Escherichia coli TOP10
Assay: shrunken log2 fold change of peptide-encoding DNA abundance (4.5 h post-induction vs induction); higher = less antimicrobial activity (less host growth inhibition)
Conditions: time post-induction: 4.5 h; library: site-saturation at positions 5, 18, 19, 20
Each entry belongs to exactly one class, chosen by where its shrunken log2 fold change falls: group 1: < -0.1; group 2: ≥ -0.1 and < 0.1; group 3: ≥ 0.1

Please review the entries below; each comes with its answer.
RRIRMRPPRLPRPRPRPKTSPRP = group 3
RRIRPRPPRLPRPRPRPSRRPRP = group 1
RRIRKRPPRLPRPRPRPYDMPRP = group 2
RRIRLRPPRLPRPRPRPPFCPRP = group 3
RRIRHRPPRLPRPRPRPECGPRP = group 3

Bin? `RRIRDRPPRLPRPRPRPRGAPRP`
group 3

---

Listing of recorded shrunken log2 fold change by entry.
System: Escherichia coli TOP10
Test: shrunken log2 fold change of peptide-encoding DNA abundance (4.5 h post-induction vs induction); higher = less antimicrobial activity (less host growth inhibition)
Conditions: time post-induction: 4.5 h; library: site-saturation at positions 5, 18, 19, 20

Some sequences with recorded shrunken log2 fold change:
RRIRGRPPRLPRPRPRPTHRPRP = 0.454
RRIRDRPPRLPRPRPRPEIDPRP = 0.0535
RRIRFRPPRLPRPRPRPQTLPRP = -0.399
RRIRPRPPRLPRPRPRPTIFPRP = 0.0842
RRIRLRPPRLPRPRPRPGYYPRP = -0.166
RRIRVRPPRLPRPRPRPAFQPRP = 0.151

Give measured shrunken log2 fold change for `RRIRLRPPRLPRPRPRPDYWPRP` (Escherichia coli TOP10).
-0.596

Give measured shrunken log2 fold change for `RRIRLRPPRLPRPRPRPKKGPRP` (Escherichia coli TOP10).
-0.166

Give measured shrunken log2 fold change for `RRIRMRPPRLPRPRPRPWIWPRP` (Escherichia coli TOP10).
0.106

---

Tested on: Escherichia coli TOP10
Assay: shrunken log2 fold change of peptide-encoding DNA abundance (4.5 h post-induction vs induction); higher = less antimicrobial activity (less host growth inhibition)
Settings: time post-induction: 4.5 h; library: site-saturation at positions 5, 18, 19, 20
Each entry belongs to exactly one class, chosen by where its shrunken log2 fold change falls: lower range: < -0.1; middle range: ≥ -0.1 and < 0.5; upper range: ≥ 0.5

Please review the entries below; each comes with its answer.
RRIRQRPPRLPRPRPRPHMRPRP = middle range
RRIRNRPPRLPRPRPRPLWAPRP = middle range
RRIRARPPRLPRPRPRPPHFPRP = upper range
RRIRPRPPRLPRPRPRPNWNPRP = lower range
RRIRHRPPRLPRPRPRPPSGPRP = upper range
RRIRGRPPRLPRPRPRPEKFPRP = upper range

Bin? `RRIRVRPPRLPRPRPRPGFTPRP`
lower range

Bin? `RRIRQRPPRLPRPRPRPMGNPRP`
lower range

Bin? `RRIRWRPPRLPRPRPRPPLQPRP`
middle range

---

System: Escherichia coli TOP10
Test: shrunken log2 fold change of peptide-encoding DNA abundance (4.5 h post-induction vs induction); higher = less antimicrobial activity (less host growth inhibition)
Conditions: time post-induction: 4.5 h; library: site-saturation at positions 5, 18, 19, 20
reportedMetric: shrunken log2 fold change
Give only the figure.

Find the measured shrunken log2 fold change of `RRIRYRPPRLPRPRPRPREAPRP` and report it.
0.469

Find the measured shrunken log2 fold change of `RRIRVRPPRLPRPRPRPAVDPRP` and report it.
0.192

Find the measured shrunken log2 fold change of `RRIRSRPPRLPRPRPRPHQAPRP` and report it.
-0.161

---

System: Escherichia coli TOP10;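 further: peptides expressed intracellularly from a pBAD plasmid library in pooled LB shake-flask culture, induced with 0.3% L-arabinose, DNA abundance read by NGS, three biological replicates, DESeq2 with apeglm shrinkage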
Assay: shrunken log2 fold change of peptide-encoding DNA abundance (4.5 h post-induction vs induction); higher = less antimicrobial activity (less host growth inhibition)
Conditions: time post-induction: 4.5 h; library: site-saturation at positions 5, 18, 19, 20
shrunken log2 fold change of -0.5 or higher: 1 (yes). Under -0.5: 0 (no).

Please review the entries below; each comes with its answer.
RRIRNRPPRLPRPRPRPMDQPRP = 1 (yes)
RRIRHRPPRLPRPRPRPIHDPRP = 0 (no)
RRIRNRPPRLPRPRPRPAQRPRP = 1 (yes)
RRIRSRPPRLPRPRPRPFKQPRP = 1 (yes)

Is it the case that `RRIRARPPRLPRPRPRPCDTPRP` has shrunken log2 fold change reaching or exceeding -0.5?
1 (yes)

Is it the case that `RRIRCRPPRLPRPRPRPKIHPRP` has shrunken log2 fold change reaching or exceeding -0.5?
0 (no)
